# target of assay: Mitogen-activated protein kinase 14 (Homo sapiens, UniProt Q16539)
# Sequence (Q16539 whole entry): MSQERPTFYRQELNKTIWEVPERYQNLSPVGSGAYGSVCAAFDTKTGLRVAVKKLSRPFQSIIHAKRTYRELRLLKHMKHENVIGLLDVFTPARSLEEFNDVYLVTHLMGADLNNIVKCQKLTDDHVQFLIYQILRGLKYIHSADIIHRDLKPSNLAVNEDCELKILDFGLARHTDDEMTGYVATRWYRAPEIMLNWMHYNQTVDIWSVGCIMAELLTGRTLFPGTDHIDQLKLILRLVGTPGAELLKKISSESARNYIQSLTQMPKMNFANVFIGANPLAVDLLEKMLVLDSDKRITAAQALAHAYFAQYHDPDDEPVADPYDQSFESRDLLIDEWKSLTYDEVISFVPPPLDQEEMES
# assay notes: Inhibition of p38 alpha MAPK in human whole blood assessed as phosphorylation of ATF-2 by immunosorbent non-radioactive enzyme assay relative to SB203580
# Assay type: tissue-based
measured quantity: Ratio IC50

Consider the worked cases shown below.
INSERT INTO measurements (molecule, recorded_value) VALUES
  ('CC(C)[S+]([O-])c1nc(-c2ccc(F)cc2)c(-c2ccnc(NC3CCCCC3)c2)[nH]1 (racemic)', 2.17),
  ('CC(C)Nc1cc(-c2[nH]c([S@@+]([O-])C(C)C)nc2-c2ccc(F)cc2)ccn1', 6.17),
  ('CSc1nc(-c2ccc(F)cc2)c(-c2ccnc(NC3CCOCC3)c2)[nH]1', 9.8),
  ('CC(C)Nc1cc(-c2[nH]c(SC(C)C)nc2-c2ccc(F)cc2)ccn1', 3.75),
  ('CC(C)Nc1cc(-c2[nH]c([S+](C)[O-])nc2-c2ccc(F)cc2)ccn1 (racemic)', 7.5),
  ('C[C@@H](Nc1cc(-c2[nH]c([S@+](C)[O-])nc2-c2ccc(F)cc2)ccn1)c1ccccc1', 0.42);

1 = CSc1nc(-c2ccc(F)cc2)c(-c2ccnc(NC(C)=O)c2)n1C
2 = C[S+]([O-])c1nc(-c2ccc(F)cc2)c(-c2ccnc(NC3CCCCC3)c2)[nH]1 (racemic)
3 = C[C@H](Nc1cc(-c2[nH]c([S+](C)[O-])nc2-c2ccc(F)cc2)ccn1)c1ccccc1 (mixture of isomers)
4 = CC(C)[C@H](C)Nc1cc(-c2[nH]c([S@@+](C)[O-])nc2-c2ccc(F)cc2)ccn1
Q) Arrange the 4 entries by Ratio IC50 so the values rise. Would you mind listing the labels in the order requested?
A) 1, 3, 2, 4

P = CC(C)[S@+]([O-])c1nc(-c2ccc(F)cc2)c(-c2ccnc(NC3CCCCC3)c2)[nH]1
Q = CC(=O)Nc1cc(-c2[nH]c([S+](C)[O-])nc2-c2ccc(F)cc2)ccn1 (racemic)
Q) Which has the smaller recorded Ratio IC50, P or Q ? Reply briefly: the label of your chosen item.
A) Q

1 = C[S@+]([O-])c1nc(-c2ccc(F)cc2)c(-c2ccnc(NC3CCOCC3)c2)[nH]1
2 = CSc1nc(-c2ccc(F)cc2)c(-c2ccnc(NC(=O)Cc3ccc(F)cc3)c2)[nH]1
3 = C[C@@H](Nc1cc(-c2[nH]c([S+](C)[O-])nc2-c2ccc(F)cc2)ccn1)c1ccccc1 (mixture of isomers)
4 = CC(=O)Nc1cc(-c2[nH]c([S@+](C)[O-])nc2-c2ccc(F)cc2)ccn1
5 = CC(C)Nc1cc(-c2[nH]c([S@@+](C)[O-])nc2-c2ccc(F)cc2)ccn1
Q) Sort by Ratio IC50, descending. Please respond with the labels ordered as the question requires.
A) 5, 2, 1, 4, 3

1 = C[S+]([O-])c1nc(-c2ccc(F)cc2)c(-c2ccnc(NC3CCOCC3)c2)[nH]1 (racemic)
2 = CC(C)[C@@H](C)Nc1cc(-c2[nH]c([S@+](C)[O-])nc2-c2ccc(F)cc2)ccn1
3 = CC(=O)Nc1cc(-c2[nH]c([S@@+](C)[O-])nc2-c2ccc(F)cc2)ccn1
4 = CSc1nc(-c2ccc(F)cc2)c(-c2ccnc(NC(C)=O)c2)[nH]1
5 = C[S@@+]([O-])c1nc(-c2ccc(F)cc2)c(-c2ccnc(NC(=O)Cc3ccc(F)cc3)c2)[nH]1
Q) Hello, I need these entries ordered by Ratio IC50, highest reading first. Thanks! Please respond with the labels ordered as the question requires.
A) 1, 4, 2, 5, 3

Values compiled from ChEMBL document CHEMBL1773061.
